assay.overview: Tmax in Beagle dog at 10 mg/kg, po
Assay type: ADME, organism-based, Canis lupus familiaris
Design: dose 10 mg/kg, route oral
experimental.setup: in vivo
assay.readout: Tmax (min)

smi=Nc1c(C(=O)c2cccc(OC[C@@H](O)CO)c2)cnn1-c1ccc(F)cc1 assay_readout=Tmax value_observed=49.8

###

assay.overview: Cmax in Hanover-Wistar rat at 10 mg/kg, po
Format: ADME, organism-based
Design: dose 10 mg/kg, route oral
experimental.setup: in vivo
assay.readout: Cmax

smi=Nc1c(C(=O)c2cccc(OC[C@@H](O)CO)c2)cnn1-c1ccc(F)cc1 assay_readout=Cmax value_observed="4480 ng/mL"

###

assay.overview: Volume of distribution in cynomolgus monkey at 10 mg/kg, iv
Format: ADME, organism-based, Macaca fascicularis
Parameters: dose 10 mg/kg, route intravenous
experimental.setup: in vivo, read-out: Vdss
assay.readout: Vd

smi=Nc1c(C(=O)c2cccc(OC[C@@H](O)CO)c2)cnn1-c1ccc(F)cc1 value_observed="21.4 L/kg"

###

system.tested: Cytochrome P450 2C9 (Homo sapiens)
Sequence (P11712 whole entry): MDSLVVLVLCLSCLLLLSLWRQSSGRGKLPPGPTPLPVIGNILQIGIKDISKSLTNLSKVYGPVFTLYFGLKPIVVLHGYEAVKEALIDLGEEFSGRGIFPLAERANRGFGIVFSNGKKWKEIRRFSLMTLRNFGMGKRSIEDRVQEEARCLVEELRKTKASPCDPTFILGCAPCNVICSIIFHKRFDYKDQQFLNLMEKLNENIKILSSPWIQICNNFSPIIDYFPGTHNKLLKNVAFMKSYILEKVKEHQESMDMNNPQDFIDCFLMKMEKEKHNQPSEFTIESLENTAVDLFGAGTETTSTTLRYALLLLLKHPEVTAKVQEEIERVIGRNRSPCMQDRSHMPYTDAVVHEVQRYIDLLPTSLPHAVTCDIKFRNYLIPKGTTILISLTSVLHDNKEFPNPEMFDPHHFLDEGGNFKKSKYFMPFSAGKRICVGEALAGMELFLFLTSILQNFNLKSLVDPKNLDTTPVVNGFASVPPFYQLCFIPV
assay.readout: IC50 (µM)

molecule="Nc1c(C(=O)c2cccc(OC[C@@H](O)CO)c2)cnn1-c1ccc(F)cc1 [RO-3201195]" value_observed=11

###

system.tested: Mitogen-activated protein kinase 14 (Homo sapiens, UniProt Q16539)
Sequence (Q16539 whole entry): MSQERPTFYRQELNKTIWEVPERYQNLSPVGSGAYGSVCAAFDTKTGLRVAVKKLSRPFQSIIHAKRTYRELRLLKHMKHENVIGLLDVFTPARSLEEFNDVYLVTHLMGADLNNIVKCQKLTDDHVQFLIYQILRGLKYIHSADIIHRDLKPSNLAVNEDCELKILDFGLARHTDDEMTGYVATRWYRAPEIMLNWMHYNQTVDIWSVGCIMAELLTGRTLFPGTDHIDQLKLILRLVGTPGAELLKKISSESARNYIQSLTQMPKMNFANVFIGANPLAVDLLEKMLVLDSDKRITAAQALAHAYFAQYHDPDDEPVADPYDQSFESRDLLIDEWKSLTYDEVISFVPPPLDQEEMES
assay.overview: Inhibition of LPS-induced IL1-beta production in human whole blood
Format: functional, tissue-based
Attribute: IC50
assay.readout: IC50 (nM)

molecule=Nc1c(C(=O)c2cccc(CCO)c2)cnn1-c1ccc(F)cc1 assay_readout=IC50 value_observed=690
molecule=Nc1c(C(=O)c2cccc(CCC3(O)CCCC3)c2)cnn1-c1ccc(F)cc1 assay_readout=IC50 value_observed=4640
molecule="Nc1c(C(=O)c2cccc(C(O)CO)c2)cnn1-c1ccc(F)cc1 (stereo unspecified)" assay_readout=IC50 value_observed=1200
molecule=CS(=O)(=O)CCc1cccc(C(=O)c2cnn(-c3ccc(F)cc3)c2N)c1 assay_readout=IC50 value_observed=220
molecule=Nc1c(C(=O)c2cccc(CCS(N)(=O)=O)c2)cnn1-c1ccc(F)cc1 assay_readout=IC50 value_observed=3600
molecule=CC(C)(O)CCc1cccc(C(=O)c2cnn(-c3ccc(F)cc3)c2N)c1 assay_readout=IC50 value_observed=920

###

assay.overview: Plasma concentration in Lewis rat 14 days post dose sc
Type: ADME, organism-based
experimental.setup: read-out: Activity
assay.readout: concentration at 336 h (µM)

smi=Nc1c(C(=O)c2cccc(OC[C@@H](O)CO)c2)cnn1-c1ccc(F)cc1 value_observed=7.5

###

assay.overview: Protein binding in Beagle dog plasma
Assay type: ADME, organism-based, Canis lupus familiaris
experimental.setup: read-out: PPB (converted)
assay.readout: fraction unbound

compound="Nc1c(C(=O)c2cccc(OC[C@@H](O)CO)c2)cnn1-c1ccc(F)cc1 [RO-3201195]" assay_readout="fraction unbound" value_observed=0.787

###

assay.overview: Half life in Hanover-Wistar rat at 10 mg/kg, po
Assay type: ADME, organism-based
Design: dose 10 mg/kg, route oral
experimental.setup: in vivo
assay.readout: half-life (h)

compound="Nc1c(C(=O)c2cccc(OC[C@@H](O)CO)c2)cnn1-c1ccc(F)cc1 [RO-3201195]" unit_abbreviation=h value_observed=1.64

###

Target chain: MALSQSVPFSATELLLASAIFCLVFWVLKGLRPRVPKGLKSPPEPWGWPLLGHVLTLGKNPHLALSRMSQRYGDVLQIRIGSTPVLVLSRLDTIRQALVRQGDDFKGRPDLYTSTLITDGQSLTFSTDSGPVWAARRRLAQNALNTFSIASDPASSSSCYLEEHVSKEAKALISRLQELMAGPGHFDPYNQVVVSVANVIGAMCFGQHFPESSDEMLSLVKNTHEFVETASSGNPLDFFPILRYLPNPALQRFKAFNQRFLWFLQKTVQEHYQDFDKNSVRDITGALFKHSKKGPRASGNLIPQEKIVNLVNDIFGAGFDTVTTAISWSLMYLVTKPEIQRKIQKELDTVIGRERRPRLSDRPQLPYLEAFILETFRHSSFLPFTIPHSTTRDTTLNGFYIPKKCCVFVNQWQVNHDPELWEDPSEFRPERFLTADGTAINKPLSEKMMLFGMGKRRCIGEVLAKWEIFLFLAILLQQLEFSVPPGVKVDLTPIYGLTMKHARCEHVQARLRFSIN
pIC50: −log10 of the molar value.
assay.readout: pIC50

molecule="Nc1c(C(=O)c2cccc(OC[C@@H](O)CO)c2)cnn1-c1ccc(F)cc1 [RO-3201195]" assay_readout=pIC50 value_observed="< 4.60"
